ASSAY_SUMMARY: small-molecule binders of probe aLefty1, primary screen, biochemical, small-molecule microarray, 635/667 nm fluorescence (AID 1153);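 also: score merges spot fluorescence with signal-to-noise ratio from the scanned slide images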
CONDITION_SET: higher = more signal
MEASURED_METRIC: composite z-score
I only need the number, thanks.

// query Requested read-out: composite z-score. Entry: `COc1ccc([Si](C)(C)[C@@H]2[C@@H](CCn3cc([C@H](O)c4ccccc4)nn3)O[C@]3(C(=O)N(Cc4ccc(N5CCOC5=O)cc4)c4ccccc43)[C@H]2C)cc1`
// result 0.142

// query Name the recorded composite z-score for `[N-]=[N+]=Nc1ccccc1[C@@H]1OC(c2ccc(OCCCO)cc2)=N[C@]1(CCS(=O)(=O)c1ccccc1)C(=O)NCCN1CCOCC1` .
// result 0.417

// query Data request, read-out composite z-score, for `CCOC(=O)C[C@H]1[C@H](OC(=O)c2ccc(-c3ccccc3)cc2)[C@@H](NC(=O)c2ccc3ccccc3c2)c2cc(OCCCO)ccc2N1C(=O)c1ccc2ccccc2n1`
// result 0.302

// query Can you look up the measured composite z-score of `COC(=O)[C@@]1(Cc2ccccc2)[C@H]2c3cc(C(=O)N4CCCC4)n(Cc4ccsc4Br)c3C[C@H]2CN1C(=O)c1ccccc1` for me?
// result 0.451

// query Endpoint output: composite z-score of `CN(C)CCCNC(=O)[C@@]1(C)c2ccccc2C(=O)N(Cc2cc(C(F)(F)F)cc(C(F)(F)F)c2)[C@H]1c1ccc(CO)cc1` . Value?
// result -0.147

// query Query: composite z-score; subject: `CN(C)CCCCNC(=O)[C@H]1C[C@H]2C(=O)N[C@@H](CCCCN(C)C)C(=O)N2[C@H]1c1cccc(OCCO)c1`
// result -0.546

Taken from PubChem BioAssay.
